Assay: Growth inhibition of human GXF251L cells after 72 hrs by SRB assay
Type: functional
Details: GXF 251L
pIC50: −log10 of the molar value.
Quick rule: pIC50 of at least 5 means 1, below that means 0.

Worked examples follow.
> print(dat)
                              compound  assigned.label
1         Oc1ccc2ncc3cc4c(cc3c2c1)OCO4               0
2  COc1ccc2c(c1)c1cc3c(cc1c[n+]2C)OCO3               1
3      C[n+]1cc2cc3c(cc2c2ccccc21)OCO3               1
4          COc1cc2cnc3ccc(O)cc3c2cc1OC               0
5          COc1ccc2c(cnc3ccc(O)cc32)c1               0

Identify whether the reported pIC50 of the following compound is 5 or greater: COc1ccc2c(c1)c1ccccc1c[n+]2C 1

Identify whether the reported pIC50 of the following compound is 5 or greater: COc1ccc2c(c1)c[n+](C)c1ccc(O)cc21 1

Identify whether the reported pIC50 of the following compound is 5 or greater: COc1ccc2cnc3ccc(O)cc3c2c1 0

Identify whether the reported pIC50 of the following compound is 5 or greater: Oc1cc2c3c(c1)c1cc4c(cc1c[n+]3CC2)OCO4 [LYCOBETAINE] 1

Identify whether the reported pIC50 of the following compound is 5 or greater: COc1ccc2ncc3cc(OC)c(OC)cc3c2c1 0

Identify whether the reported pIC50 of the following compound is 5 or greater: C[n+]1cc2cc3c(cc2c2cc(O)ccc21)OCO3 1

Identify whether the reported pIC50 of the following compound is 5 or greater: COc1cc2c[n+](C)c3ccc(O)cc3c2cc1OC 0
